TESTED SYSTEM: Receptor tyrosine-protein kinase erbB-2 (Homo sapiens) (UniProt P04626)
Sequence (P04626 whole entry, looked up): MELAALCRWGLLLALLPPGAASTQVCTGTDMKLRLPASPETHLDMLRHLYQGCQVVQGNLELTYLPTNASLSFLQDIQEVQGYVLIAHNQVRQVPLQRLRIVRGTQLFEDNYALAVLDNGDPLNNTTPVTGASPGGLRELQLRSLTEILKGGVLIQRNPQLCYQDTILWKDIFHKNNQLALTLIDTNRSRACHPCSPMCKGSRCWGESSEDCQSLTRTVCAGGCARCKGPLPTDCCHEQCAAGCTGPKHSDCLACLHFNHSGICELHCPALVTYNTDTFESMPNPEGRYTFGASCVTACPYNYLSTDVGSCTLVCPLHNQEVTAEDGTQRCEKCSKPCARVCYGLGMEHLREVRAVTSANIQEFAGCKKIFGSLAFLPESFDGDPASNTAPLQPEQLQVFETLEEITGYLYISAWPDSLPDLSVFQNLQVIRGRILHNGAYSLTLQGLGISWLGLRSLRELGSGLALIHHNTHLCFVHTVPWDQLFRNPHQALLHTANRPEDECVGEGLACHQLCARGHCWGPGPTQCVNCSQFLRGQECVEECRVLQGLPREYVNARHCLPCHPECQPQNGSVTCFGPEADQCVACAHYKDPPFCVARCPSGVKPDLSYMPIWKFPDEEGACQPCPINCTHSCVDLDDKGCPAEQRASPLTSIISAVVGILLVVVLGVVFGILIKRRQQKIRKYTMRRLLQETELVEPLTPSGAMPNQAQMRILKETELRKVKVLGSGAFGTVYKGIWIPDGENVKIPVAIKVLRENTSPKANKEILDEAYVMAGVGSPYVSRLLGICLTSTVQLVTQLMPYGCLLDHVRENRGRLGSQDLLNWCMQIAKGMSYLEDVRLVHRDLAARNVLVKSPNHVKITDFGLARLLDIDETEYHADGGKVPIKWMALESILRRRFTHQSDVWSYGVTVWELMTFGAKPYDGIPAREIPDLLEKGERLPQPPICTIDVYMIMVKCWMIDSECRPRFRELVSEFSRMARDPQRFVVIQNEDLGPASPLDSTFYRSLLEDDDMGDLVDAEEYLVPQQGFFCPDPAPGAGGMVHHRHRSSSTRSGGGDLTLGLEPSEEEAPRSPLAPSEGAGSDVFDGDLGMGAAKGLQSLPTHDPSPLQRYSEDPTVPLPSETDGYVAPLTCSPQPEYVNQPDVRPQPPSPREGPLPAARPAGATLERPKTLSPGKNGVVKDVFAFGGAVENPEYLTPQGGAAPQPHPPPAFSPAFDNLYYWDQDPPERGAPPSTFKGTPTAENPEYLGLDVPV
EXPERIMENT: reducers of endogenous Her2 protein level, primary screen, SKBR3 breast tumor cells, AlphaScreen, ATP viability (AID 461);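 on viability: percent of carrier control wells set as 100% viability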
CONDITION INFO: 18-24 h, at 10 µM, stronger effect = lower value
PROPERTY LABEL: Her2 level (%)
Write the value in % as a bare number.

Given the entry O=C(c1ccco1)N1CCN(S(=O)(=O)c2ccc(Oc3ccccc3)cc2)CC1 , report its measured Her2 level.
102

Report Her2 level for CCC(Sc1nc2sc(C(=O)OC)c(C)c2c(=O)n1N)C(=O)NCC1CCCO1 (stereo not drawn) please.
88

# input compound: CCOC(=O)C1CCN(C(=O)CSc2n[nH]c(=O)[nH]c2=O)CC1 ; wanted: its Her2 level
90

Given the compound Cc1ccccc1-n1c(=O)cc(N2CCN(C(=O)c3ccco3)CC2)[nH]c1=O , what is its reported Her2 level?
100

I am curious: what Her2 level value has been reported for CCNc1nc(OC)nc(Oc2ccc(=O)n(-c3ccccc3)n2)n1 ?
86.5

Entry CCOc1ccc(C2CC(c3cccc(C)c3)n3ncnc3N2)cc1 (stereo not drawn) : reported Her2 level = ?
100

Quick check: Her2 level of Cc1ccccc1NS(=O)(=O)c1cc(S(C)(=O)=O)ccc1Cl ?
98.5

I have this compound here, Cc1cc(C)nc(N2CCC(C(=O)NCc3cccc(C(F)(F)F)c3)CC2)n1 , and I need its recorded Her2 level.
100

Given the entry COc1ccc(NC(=O)c2cc(C(C)C)on2)c(OC)c1 , report its measured Her2 level.
85.5

Item under review: CCc1nnc2n1N=C(c1ccc(-c3ccc(Cl)cc3Cl)o1)CS2 . Reported Her2 level?
81.5

Please report the recorded Her2 level for CCCCOc1ccccc1C(=O)NCCCC(=O)O .
80.5

Given the compound O=C(O)CCc1ccc(-c2ccc(F)cc2)n1CC(=O)O , what is its reported Her2 level?
87

Fill in: Her2 level of CC1Cc2nc(SCC(=O)Nc3ccccc3F)n(C)c(=O)c2S1 (stereo not drawn) is ___
89.5

Her2 level for COC(=O)Cc1c(C)nc2nc(-c3ccco3)[nH]n2c1=O ?
93

Which Her2 level is listed for Cc1cc(NC(=O)Cn2cnc3c(cnn3C(C)(C)C)c2=O)no1 ?
100

For Cc1cc(O)c(C2(C(F)(F)F)NCCNC2=O)cc1C (stereo not drawn) , what is its reported Her2 level?
96

Dear colleague, I am looking for the recorded Her2 level of the following compound: O=C(/C=N/O)Nc1cccnc1
90

# Her2 level lookup, item O=C(Nc1ccccc1-c1ccccc1)NC1CCN(CC(=O)N2CCOCC2)CC1
103

Requested field: Her2 level. Item: Cc1cccc(-c2cc3nc4c(c(N5CCC6(CC5)OCCO6)n3n2)CCCC4)c1
100

Param item = Cc1cc(C(=O)N2CCN(c3ncccn3)CC2)cs1 ; retrieve measured Her2 level.
94.5

// Her2 level lookup, key: COC(=O)c1ccc(NC(=O)Cn2nnc3ccccc32)cc1
82.5

Which Her2 level is reported for this compound? COC(=O)c1ccc(NC(=O)CN2C(=O)CSC2=O)cc1
93

Item COc1ccc(C(=O)N2CCN(C3CCC(c4ccccc4)CC3)CC2)cc1OC (stereo not drawn) has what recorded Her2 level?
93

----------
Could you please report measured viability for the items listed next?
EXPERIMENT: reducers of endogenous Her2 protein level, primary screen, SKBR3 breast tumor cells, AlphaScreen, ATP viability (AID 461);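 on viability: percent of carrier control wells set as 100% viability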
CONDITION INFO: 18-24 h, measured here: SKBR3 viability, ATP luminescence, at 10 µM
Please respond with the number in % and leave the unit unwritten.

For CCOC(=O)c1ccc(NC(=O)c2ccc(NS(C)(=O)=O)cc2)cc1 , what is its reported viability?
97

Quick check: viability of O=C1C(c2ccncc2)=C(O)c2ccccc21 ?
100

Consider the molecule Cc1oc2cc(O)ccc2c(=O)c1-c1cnn(-c2ccccc2)c1 and give its measured viability.
93.5

Returns the measured viability for the input molecule. Input: Cc1nn(-c2ccc(F)cc2)c2sc(C(=O)OCC(=O)N3CCC(C)CC3)cc12
93

Quick check: viability of CC1=C(C#N)C(c2ccoc2)C(C(=O)OCc2ccccc2)=C(N)S1 (configuration not stated) ?
100

Given Cc1ccc(-c2c3c(=O)n(C)c(=O)n(C)c3cn2CCCN2CCOCC2)cc1 , state its recorded viability.
144

Can you share its viability? I mean this molecule: Cc1ccc(CCNC(=O)CC2Oc3ccc(C)cc3NC2=O)cc1 (configuration not stated)
90

Fill in the blank: the reported viability of Cc1ccc(SCCNS(=O)(=O)c2ccc(F)cc2)cc1 is ____.
85

// query viability value for entry CC1=C(c2ccc(Cl)cc2)[N+](=O)C(C)(C)N1[O-]
99.5

Item under review: CC(=O)N(CCN(C(C)=O)c1ccccc1)c1ccccc1 . Reported viability?
105

Tell me the measured viability of Cc1ccc(S(=O)(=O)NCCNC(=O)c2ccccc2)cc1 , please.
99

Quick one: viability of CC(C)c1nnc(NC(=O)c2cnccn2)s1 ?
87.5

For the molecule Cn1c(=O)c2c(nc(NCc3ccccc3)n2CCCc2ccccc2)n(C)c1=O , what viability is on record?
84

Given the entry O=C1CCn2nc(-c3ccc(Cl)cc3)cc2N1 , report its measured viability.
106

Find the recorded viability belonging to CCCCCOC(=O)C1=C(C)N(C)C(=O)NC1c1cc(Br)c(O)c(OC)c1 (configuration not stated) and report it.
114

Can you look up the measured viability of Cc1noc(C)c1CSc1nnc2n(-c3ccccc3)c(=O)c3ccccc3n12 for me?
72.5

What value of measured viability is listed for c1c2c(cc3sc(N4CCCCC4)nc13)OCCO2 ?
98

Look up viability for this molecule: COC(=O)c1c(N)n(-c2cc(OC)cc(OC)c2)c2nc3ccccc3nc12
85.5

What does the record list as viability for COc1ccc2[nH]c(=O)c(CN(C(=O)c3cccnc3)c3ccccc3OC)cc2c1 ?
104

Quick check: viability of N#Cc1c2n(c(=S)n(-c3ccccn3)c1=O)CCCCC2 ?
81.5

Which viability value is on record for NCc1cccc(-n2cccn2)c1 ?
110

Which viability is reported for this molecule? Cc1ccc(-n2c(=O)[nH]c3c(C(N)=O)nc(CC(C)C)nc32)cc1
105

What viability value was documented for this molecule, Cc1ccc(CCNC(=O)Cn2cccc2)cc1 ?
112

Fill blank: measured viability of the molecule CC(=O)C1=C(O)C(=O)N(Cc2ccco2)C1c1ccc2c(c1)OCO2 (configuration not stated) is ____.
108

Find the recorded viability belonging to COC(=O)c1ccccc1NS(=O)(=O)c1ccc(F)cc1 and report it.
120

Which viability value is on record for C=CCn1c(N)c(C(=O)NCCC2=CCCCC2)sc1=S ?
85.5

Please look up its viability: CCS(=O)(=O)N1CCCC(C(=O)NCc2ccccc2Cl)C1 (configuration not stated)
90

Value lookup for viability; key = Cc1ccc(-c2cc(C(=O)NCCN3CCOCC3)no2)cc1
86.5

I am curious: what viability value has been reported for Cc1ccc(NC(=O)c2ccccc2O)cc1 ?
93.5

State the recorded viability for this entry: CCOC(=O)CC(=O)Nc1c(C)cc(C)cc1C
94.5

What does the record list as viability for COc1cc(OC)cc(C(=O)NCc2n[nH]c(=S)n2-c2ccccc2OC)c1 ?
97

I am curious: what viability value has been reported for COc1ccc(C2C3=C(CC(C)(C)CC3=O)Oc3ncn4nc(-c5cccnc5)nc4c32)cc1 (configuration not stated) ?
96

Fill in: viability of CCSc1nnc(NC(=O)c2csc(C)c2)s1 is ___
95

I am curious: what viability value has been reported for Cc1ccc2c(CNCc3ccco3)cc(=O)oc2c1 ?
117

Given the molecule Cc1cc(C(=O)O)ccc1-n1c(C)ccc1C , what is its reported viability?
100

Any idea what its viability is? The molecule is CCN(c1c(C)n(C)n(-c2ccccc2)c1=O)S(C)(=O)=O
98.5

Consider the molecule shown here: COc1ccc(S(=O)(=O)N2CN(Cc3ccco3)c3nc4ccccc4nc32)cc1 What is its recorded viability?
101

GET /values?readout=viability&item= CCNS(=O)(=O)c1c(C)cc(N2CCCC2=O)cc1C
95.5

Query: viability; subject: Cc1cc(=O)[nH]c(=S)n1-c1ccccc1
99.5

Requested field: viability. Item: COC(=O)c1cc(OC)c(OC)cc1NC(=O)CCC1CCCC1
103

Can you share its viability? I mean this molecule: Cc1ccc(C2Nc3ccccc3-c3nc4ccccc4n32)o1 (configuration not stated)
97

Using the record for O=c1[nH]c2sc3c(c2c2nncn12)CCCC3 , report its viability.
136

// query viability value for entry Cc1ccc(N2CC(C)Cn3c2nc2c3c(=O)n(CC(=O)OCc3ccccc3)c(=O)n2C)cc1C (configuration not stated)
86.5

Field request: viability | item: CCCCn1c(SCC(=O)Nc2ccc(OC)cc2)nc2ccc(N3CCOCC3)cc2c1=O
94.5

What value of viability has been recorded for this entry: CCCn1c2c(c(O)c(C(=O)Nc3ccc(C)cn3)c1=O)CCCC2
102

Given the molecule CCC1SC2=NC(C)=C(C(=O)OC)C(c3ccc(C)cc3)N2C1=O (configuration not stated) , what is its reported viability?
94

Quick check: viability of CC(NC(=O)c1ccco1)C(c1cccs1)N1CCN(c2ccc(F)cc2)CC1 (configuration not stated) ?
96
